Where do the numbers come from? From patent US8546381B2.

target: human recombinant serotonin (5-Hydroxytryptamine) 5-HT2C receptor (Homo sapiens); construct: expressed in transfected cells; host or cells: CHO-K1 cells; assay: Serotonin 5-HT2C radioligand binding ([3H]Mesulergine); conditions: read-out: Serotonin 5-HT2C, inhibition of ligand binding (1 μM)
Sequence (P28335 33-458): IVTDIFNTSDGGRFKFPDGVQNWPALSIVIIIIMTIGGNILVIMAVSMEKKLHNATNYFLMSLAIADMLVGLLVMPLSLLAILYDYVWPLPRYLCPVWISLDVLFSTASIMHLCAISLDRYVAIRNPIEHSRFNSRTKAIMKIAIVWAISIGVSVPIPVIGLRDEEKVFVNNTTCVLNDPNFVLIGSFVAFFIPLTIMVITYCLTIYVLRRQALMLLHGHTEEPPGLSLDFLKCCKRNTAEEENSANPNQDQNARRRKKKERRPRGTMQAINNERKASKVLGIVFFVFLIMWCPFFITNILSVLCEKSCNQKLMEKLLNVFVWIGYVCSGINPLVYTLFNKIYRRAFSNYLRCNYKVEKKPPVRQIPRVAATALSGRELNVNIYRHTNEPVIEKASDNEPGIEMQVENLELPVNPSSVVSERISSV
Please enter Criterion met where inhibition at 1 µM is greater than or equal to 60%, and Criterion not met where it is lower.

Data request: State whether the measured inhibition at 1 µM reaches 60%, counting equality as reaching it, for C/C(=C\n1c2c(c3cc(Cl)ccc31)C1CCC(C2)N1C)c1cccnc1 (stereo not shown)
Data returned: Criterion met

Data request: inhibition at 1 µM >= 60% for CN1[C@@H]2CC[C@H]1c1c(n(CC(C)(O)c3ccc(F)cc3)c3ccccc13)C2 (stereo partly shown) ?
Data returned: Criterion met

Data request: Could you verify whether the entry COc1ccc(C(C)(O)Cn2c3c(c4cc(C)ccc42)C2CCC(C3)N2C)cc1F (stereo not shown) shows inhibition at 1 µM of no less than 60%?
Data returned: Criterion met

Data request: API: above_or_equal(metric=inhibition at 1 µM, cutoff=60%) for item CN1C2CCC1c1c(n(CCC(=O)N3CCNC(=O)C3)c3ccc(Cl)cc13)C2 (stereo not shown)
Data returned: Criterion not met

Data request: Record Cc1ccc(C#Cn2c3c(c4cc(Cl)ccc42)C2CCC(C3)N2C)cn1 (stereo not shown) ; criterion: inhibition at 1 µM no lower than 60%. Met?
Data returned: Criterion met

Data request: Check if inhibition at 1 µM >= 60% (inclusive). Item: Cc1ccc2c(c1)c1c(n2CCc2cncc(Cl)c2)CC2CCC1N2C (stereo not shown)
Data returned: Criterion not met

Data request: I'd appreciate it if you could say whether CN1C2CCC1c1c(n(CCC(=O)N3CC[S+]([O-])CC3)c3ccc(Cl)cc13)C2 (stereo not shown) has inhibition at 1 µM at least equal to 60%.
Data returned: Criterion not met

Data request: Please tell me: is the compound CN1C2CCC1c1c(n(CCc3ccc(Cl)cc3)c3ccc(F)cc13)C2 (stereo not shown) at or over 60% in terms of inhibition at 1 µM?
Data returned: Criterion met

Data request: Hi team, for CN1C2CCC1c1c(n(CC(=O)c3ccccc3)c3ccc(Cl)cc13)C2 (stereo not shown) , is the recorded inhibition at 1 µM at or above 60%?
Data returned: Criterion met

Data request: Is it the case that CN1C2CCC1c1c(n(CCc3ccc(C(F)(F)F)nc3)c3ccc(Cl)cc13)C2 (stereo not shown) has inhibition at 1 µM reaching or exceeding 60%?
Data returned: Criterion not met

Data request: Please tell me: is the compound CCOC(=O)CCn1c2c(c3cc(Cl)ccc31)C1CCC(C2)N1C (stereo not shown) at or over 60% in terms of inhibition at 1 µM?
Data returned: Criterion not met

Data request: Has C/C(=C\n1c2c(c3cc(Cl)ccc31)C1CCC(C2)N1C)c1ccc(F)cc1 (stereo not shown) a recorded inhibition at 1 µM greater than or equal to 60%?
Data returned: Criterion met

Data request: Assess whether reported inhibition at 1 µM for COc1ccc(C(C)(O)Cn2c3c(c4cc(Cl)ccc42)C2CCC(C3)N2C)cc1F (stereo not shown) sits at 60% or higher.
Data returned: Criterion met

Data request: Does inhibition at 1 µM meet or surpass 60% for Cc1ccc(CCCn2c3c(c4cc(Cl)ccc42)C2CCC(C3)N2C)cn1 (stereo not shown) ?
Data returned: Criterion not met

Data request: Is inhibition at 1 µM at least 60%? Consider CN1C2CCC1c1c(n(CCC(=O)O)c3ccc(Cl)cc13)C2 (stereo not shown)
Data returned: Criterion not met

Data request: Reported inhibition at 1 µM at or above 60%? CN1[C@@H]2CC[C@H]1c1c(n(CC(=O)N3CCCCC3)c3ccccc13)C2
Data returned: Criterion met

Data request: inhibition at 1 µM >= 60% for Cc1ccc2c(c1)c1c(n2C(=O)Cc2ccc(Cl)cc2)CC2CCC1N2C (stereo not shown) ?
Data returned: Criterion met

Data request: Evaluate CN1C2CCC1c1c(n(CCc3cccnc3)c3ccc(Cl)cc13)C2 (stereo not shown) : inhibition at 1 µM at minimum 60%?
Data returned: Criterion not met

Data request: Would you say CN1C2CCC1c1c(n(CC(=O)N3CCOCC3)c3ccc(Cl)cc13)C2 (stereo not shown) shows inhibition at 1 µM at minimum 60%?
Data returned: Criterion not met

Data request: # check: inhibition at 1 µM of Cc1ccc2c(c1)c1c(n2CCC#N)CC2CCC1N2C (stereo not shown) is greater than or equal to 60%
Data returned: Criterion not met

Data request: Decide: is the reported value of inhibition at 1 µM for Cc1ccc2c(c1)c1c(n2CC(C)(O)c2ccc(Cl)cc2)CC2CCC1N2C (stereo not shown) equal to or greater than 60%?
Data returned: Criterion met

Data request: Threshold query (inhibition at 1 µM >= 60%) on Cc1ccc2c(c1)c1c(n2CCc2ccc(F)cc2)CC2CCC1N2C (stereo not shown)
Data returned: Criterion met

Data request: // inclusive: inhibition at 1 µM at least 60%? input: CN1C2CCC1c1c(n(CCC(=O)N3CCOCC3)c3ccc(Cl)cc13)C2 (stereo not shown)
Data returned: Criterion not met

Data request: Dear colleague, could you confirm whether Cc1ccc2c(c1)c1c(n2CC(=O)N2CCCCC2)CC2CCC1N2C (stereo not shown) has inhibition at 1 µM at or above 60%?
Data returned: Criterion not met

Data request: Decide: inhibition at 1 µM of CN1C2CCC1c1c(n(CCC(=O)N3CCS(=O)(=O)CC3)c3ccc(Cl)cc13)C2 (stereo not shown) >= 60%?
Data returned: Criterion not met

Data request: For this compound, is measured inhibition at 1 µM 60% or higher? Cc1ccc2c(c1)c1c(n2CCc2ccccc2)CC2CCCC1N2C (stereo not shown)
Data returned: Criterion not met

Data request: Could you tell me if the measured inhibition at 1 µM of Cc1ccc2c(c1)c1c(n2CCc2ccc(C(F)(F)F)nc2)CC2CCC1N2C (stereo not shown) reaches 60% or more?
Data returned: Criterion not met

* * *

target: human recombinant adrenergic α2A receptor (Homo sapiens, UniProt P08913); construct: expressed in transfected cells; host or cells: insect Sf9 cells; assay: Adrenergic α2A radioligand binding ([3H]MK-912); details: 1 μM; read-out: Adrenergic α2A, inhibition of ligand binding (1 μM)
Sequence (P08913 whole entry): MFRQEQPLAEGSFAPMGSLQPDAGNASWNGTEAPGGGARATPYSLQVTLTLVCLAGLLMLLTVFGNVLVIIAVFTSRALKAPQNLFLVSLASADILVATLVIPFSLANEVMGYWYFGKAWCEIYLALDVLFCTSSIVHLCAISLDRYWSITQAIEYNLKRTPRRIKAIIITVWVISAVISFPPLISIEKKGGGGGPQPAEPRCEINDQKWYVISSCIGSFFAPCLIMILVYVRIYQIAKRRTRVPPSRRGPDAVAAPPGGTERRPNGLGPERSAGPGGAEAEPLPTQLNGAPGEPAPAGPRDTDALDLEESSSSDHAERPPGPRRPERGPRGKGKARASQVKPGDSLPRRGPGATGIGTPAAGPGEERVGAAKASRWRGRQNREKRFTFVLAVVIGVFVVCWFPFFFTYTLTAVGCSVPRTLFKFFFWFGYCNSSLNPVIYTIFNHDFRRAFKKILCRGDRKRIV
Value Type: inhibition at 1 µM (%)
Numeric answer only, unit % assumed.

Data request: Check the records and state inhibition at 1 µM for Cc1ccc2c(c1)c1c(n2C(=O)Cc2ccc(Cl)cc2)CC2CCC1N2C (stereo not drawn) [Compound 162]
Data returned: 59

Data request: Give a short answer stating reported inhibition at 1 µM for Cc1ccc2c(c1)c1c(n2CCc2ccc(C)nc2)CC2CCC1N2C (stereo not drawn) [Compound 32] .
Data returned: 17

Data request: Retrieve inhibition at 1 µM measured for CN1C2CCC1c1c(n(CCc3ccc(F)cc3)c3ccc(Cl)cc13)C2 (stereo not drawn) [Compound 57] and print it.
Data returned: 96

Data request: Quick one: give measured inhibition at 1 µM for CN1C2CCC1c1c(n(CC(=O)N3CCOCC3)c3ccc(Cl)cc13)C2 (stereo not drawn) [Compound 59]
Data returned: 17

Data request: Name the recorded inhibition at 1 µM of the item Cc1ccc2c(c1)c1c(n2CCCc2ccc(Cl)cc2)CC2CCC1N2C (stereo not drawn) [Compound 85] in your answer.
Data returned: 73

Data request: Consider the compound Cc1ccc(CCn2c3c(c4cc(Cl)ccc42)C2CCC(C3)N2C)cn1 (stereo not drawn) [Compound 79] . State its measured inhibition at 1 µM.
Data returned: 14

Data request: Recall and state the measured inhibition at 1 µM for COc1ccc(/C(C)=C/n2c3c(c4cc(Cl)ccc42)C2CCC(C3)N2C)cc1F (stereo not drawn) [Compound 136] .
Data returned: 91

Data request: Query inhibition at 1 µM for CN1[C@@H]2CC[C@H]1c1c(n(CC(=O)N3CCCCC3)c3ccccc13)C2 [Compound 101]
Data returned: 18

Data request: Find the measured inhibition at 1 µM of CN1C2CCC1c1c(n(CCC(=O)N3CCOCC3)c3ccc(Cl)cc13)C2 (stereo not drawn) [Compound 13] and report it.
Data returned: 2

* * *

molecular target: human recombinant dopamine D2L receptor (Homo sapiens); construct: expressed in transfected cells; host or cells: CHO cells; experiment: Dopamine D2L radioligand binding ([3H]Spiperone); details: read-out: Dopamine (1 μM) D2L, inhibition of ligand binding
Sequence (P14416 whole entry): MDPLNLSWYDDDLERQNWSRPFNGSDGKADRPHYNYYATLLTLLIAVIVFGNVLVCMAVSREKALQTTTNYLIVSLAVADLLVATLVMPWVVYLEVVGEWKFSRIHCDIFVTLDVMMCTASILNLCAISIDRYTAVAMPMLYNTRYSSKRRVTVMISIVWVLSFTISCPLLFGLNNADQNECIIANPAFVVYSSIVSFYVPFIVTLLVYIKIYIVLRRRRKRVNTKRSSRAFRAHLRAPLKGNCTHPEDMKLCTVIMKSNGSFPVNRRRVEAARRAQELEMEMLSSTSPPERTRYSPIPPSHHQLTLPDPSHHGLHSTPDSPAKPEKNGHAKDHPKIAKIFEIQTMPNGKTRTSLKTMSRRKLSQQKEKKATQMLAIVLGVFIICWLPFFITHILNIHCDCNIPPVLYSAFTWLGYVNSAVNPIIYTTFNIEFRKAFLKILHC
Value Type: inhibition at 1 µM

Data request: Hello, please tell me recorded inhibition at 1 µM for this one: COc1ccc(C#Cn2c3c(c4cc(Cl)ccc42)C2CCC(C3)N2C)cc1F (centres unmarked)
Data returned: 13%

Data request: Provide only the value of recorded inhibition at 1 µM for CN1C2CCC1c1c(n(CCC(=O)N3CCNCC3)c3ccc(Cl)cc13)C2 (centres unmarked)
Data returned: 7%

Data request: Please supply the value of reported inhibition at 1 µM for the item COc1ccc(C(C)(O)Cn2c3c(c4cc(C)ccc42)C2CCC(C3)N2C)cc1F (centres unmarked)
Data returned: 12%

Data request: Complete the entry with inhibition at 1 µM for CCOC(=O)CCn1c2c(c3cc(Cl)ccc31)C1CCC(C2)N1C (centres unmarked)
Data returned: -3%

Data request: Input CN1C2CCC1c1c(n(CCC(=O)O)c3ccc(Cl)cc13)C2 (centres unmarked) , output reported inhibition at 1 µM.
Data returned: 3%

Data request: State its inhibition at 1 µM: Cc1ccc2c(c1)c1c(n2CCc2ccc(F)cc2)CC2CCC1N2C (centres unmarked)
Data returned: 41%

Data request: Query inhibition at 1 µM for CN1C2CCC1c1c(n(CCC(=O)N3CCOCC3)c3ccc(Cl)cc13)C2 (centres unmarked)
Data returned: 13%

Data request: Tell me measured inhibition at 1 µM for CN1C2CCC1c1c(n(CCC(=O)N3CCS(=O)(=O)CC3)c3ccc(Cl)cc13)C2 (centres unmarked) please.
Data returned: 2%

Data request: Name the recorded inhibition at 1 µM of the item Cc1ncc(CCn2c3c(c4cc(Cl)ccc42)C2CCC(C3)N2C)cn1 (centres unmarked) in your answer.
Data returned: 2%

Data request: Tell me measured inhibition at 1 µM for CN1[C@@H]2CC[C@H]1c1c(n(CCc3ccc(F)cc3)c3ccc(F)cc13)C2 please.
Data returned: 14%

Data request: Look up inhibition at 1 µM of CN1C2CCC1c1c(n(CCc3cccnc3)c3ccc(Cl)cc13)C2 (centres unmarked) and report it.
Data returned: -3%

Data request: Quickly give me recorded inhibition at 1 µM for COc1ccc(/C(C)=C/n2c3c(c4cc(Cl)ccc42)C2CCC(C3)N2C)cc1F (centres unmarked)
Data returned: 11%

Data request: Give the reported value of inhibition at 1 µM for this record: Cc1ccc2c(c1)c1c(n2C#Cc2ccc(F)cc2)CC2CCC1N2C (centres unmarked)
Data returned: -4%

Data request: Read the entry Cc1ccc2c(c1)c1c(n2CCc2ccc(C)nc2)CC2CCC1N2C (centres unmarked) and write its reported inhibition at 1 µM.
Data returned: 10%

Data request: Using the record for CN1C2CCC1c1c(n(CCC(N)=O)c3ccc(Cl)cc13)C2 (centres unmarked) , state its measured inhibition at 1 µM.
Data returned: -4%

Data request: Complete the entry with inhibition at 1 µM for CN1C2CCC1c1c(n(CCc3ccc(Cl)cc3)c3ccc(F)cc13)C2 (centres unmarked)
Data returned: 17%

Data request: Find the measured inhibition at 1 µM of Cc1ccc2c(c1)c1c(n2CCc2cccnc2)CC2CCC1N2C (centres unmarked) and report it.
Data returned: 4%
